# experiment_notes: Phase I clinical trial, food effect part: pharmacokinetics of C21 fed vs fasted
# Format: in vivo, human
# test_settings: both sexes, human, plasma, oral, 75 mg, Fed (N = 10), mixed ANOVA model; read-out: Cmax, Geometric Mean (95% CI), mixed effects model
measured_parameter: Cmax

Any idea what its Cmax is? The compound is "CCCCOC(=O)NS(=O)(=O)c1sc(CC(C)C)cc1-c1ccc(Cn2ccnc2)cc1"
263 ng/mL

* * *

# experiment_notes: Phase I clinical trial, food effect part: pharmacokinetics of C21 fed vs fasted
# Format: in vivo, human
# test_settings: both sexes, human, plasma, po, 75 mg, single oral dose 75 mg, Fed, N = 10; read-out: AUC(0-t), Arithmetic Mean
measured_parameter: AUC(0-t) (ng·h/mL)
Write the answer as a number in ng·h/mL, unit excluded.

Recorded AUC(0-t) for "CCCCOC(=O)NS(=O)(=O)c1sc(CC(C)C)cc1-c1ccc(Cn2ccnc2)cc1" , please?
767

* * *

# experiment_notes: Phase I clinical trial, food effect part: pharmacokinetics of C21 fed vs fasted
# Assay type: in vivo, human
# test_settings: both sexes, human, plasma, po, 75 mg, single oral dose 75 mg, Fasted, N = 9; read-out: AUC(0-inf), Geometric Mean
measured_parameter: AUC(0-inf)
In your response, put the unit directly after the numeric value.

// query AUC(0-inf) value for entry "CCCCOC(=O)NS(=O)(=O)c1sc(CC(C)C)cc1-c1ccc(Cn2ccnc2)cc1"
1770 ng·h/mL

* * *

# experiment_notes: Phase I clinical trial, food effect part: pharmacokinetics of C21 fed vs fasted
# Assay type: in vivo, human
# test_settings: both sexes, human, plasma, po, 75 mg, single oral dose 75 mg, Fasted, N = 9; read-out: t1/2, Arithmetic Mean
measured_parameter: half-life

// lookup half-life for "CCCCOC(=O)NS(=O)(=O)c1sc(CC(C)C)cc1-c1ccc(Cn2ccnc2)cc1"
< 1 h

* * *

# experiment_notes: Phase I clinical trial, food effect part: pharmacokinetics of C21 fed vs fasted
# Type: in vivo, human
# test_settings: both sexes, human, plasma, po, 75 mg, single oral dose 75 mg, Fasted, N = 9; read-out: Vz/F, Arithmetic Mean
measured_parameter: Vd/F (L)
Respond numerically; units are L and should not be typed.

Look up Vd/F for this molecule: "CCCCOC(=O)NS(=O)(=O)c1sc(CC(C)C)cc1-c1ccc(Cn2ccnc2)cc1"
36.6

* * *

# experiment_notes: Phase I clinical trial, food effect part: pharmacokinetics of C21 fed vs fasted
# Assay type: in vivo, human
# test_settings: both sexes, human, plasma, po, 75 mg, single oral dose 75 mg, Fed, N = 10; read-out: tmax, Median
measured_parameter: Tmax (h)
Reply with just the number (in h).

Fill blank: measured Tmax of the compound "CCCCOC(=O)NS(=O)(=O)c1sc(CC(C)C)cc1-c1ccc(Cn2ccnc2)cc1" is ____.
1.26

* * *

# experiment_notes: Phase I clinical trial, food effect part: pharmacokinetics of C21 fed vs fasted
# Type: in vivo, human
# test_settings: both sexes, human, plasma, po, 75 mg, single oral dose 75 mg, Fasted, N = 9; read-out: AUC(0-6), Geometric Mean
measured_parameter: AUC(0-t) (ng·h/mL)
Write the answer as a number in ng·h/mL, unit excluded.

Name the recorded AUC(0-t) for CCCCOC(=O)NS(=O)(=O)c1sc(CC(C)C)cc1-c1ccc(Cn2ccnc2)cc1 [C21] .
1760

These entries and their values trace back to patent US12121614B2.
